Each entry below carries its recorded activation at 1 µM.
test system: differentiated U-937 cells; assay: Human cellular U-937 autophagy induction assay (anti-LC3); format: cell-based; conditions: Homo sapiens, U-937, 12 h, read-out: Induction of autophagy with respect to the untreated control
Return type: number; implicit unit %.

Here are 10 molecules together with their reported answers.
QUERY: Which activation at 1 µM value belongs to CCCc1cc2c(c(O)c1C(=O)O)[C@@H]1C=C(C)CC[C@H]1C(C)(C)O2 ?
RESULT: 37.7

QUERY: Okay, and CCCCCc1cc(O)c2c(c1)OC1(C)CCC3C1C2C3(C)C (stereo not shown) ?
RESULT: 59.3

QUERY: Okay, and CCCCCc1cc(O)c(C/C=C(\C)CCC=C(C)C)c(O)c1 ?
RESULT: -22.6

QUERY: Okay, and CCCCCc1cc(O)c(C/C=C(\C)CCC=C(C)C)c(O)c1C(=O)O ?
RESULT: -22.3

QUERY: Okay, and CCCCCc1cc(O)c2c(c1)OC(C)(CCC=C(C)C)C=C2 (stereo not shown) ?
RESULT: -0.85

QUERY: Okay, and CCCCCc1cc2c(c(O)c1C(=O)O)[C@@H]1[C@H]3[C@H](CC[C@@]3(C)O2)C1(C)C ?
RESULT: 49.8

QUERY: Okay, and CCCCCc1cc2c(c(O)c1C(=O)O)C=CC(C)(CCC=C(C)C)O2 (stereo not shown) ?
RESULT: -11.7

QUERY: Okay, and C=C(C)[C@@H]1CCC(C)=C[C@H]1c1c(O)cc(CCCCC)c(C(=O)O)c1O ?
RESULT: -22

QUERY: Okay, and CCCCCc1cc(O)c2c(c1)OC(C)(C)c1ccc(C)cc1-2 ?
RESULT: -15.4

QUERY: Okay, and C=C(C)C1CCC(C)=CC1c1c(O)cc(CCC)cc1O (stereo not shown) ?
RESULT: -20.9

New cases:
QUERY: Which activation at 1 µM value belongs to C=C(C)[C@@H]1CCC(C)=C[C@H]1c1c(O)cc(CCC)c(C(=O)O)c1O ?
RESULT: -18.6

QUERY: Okay, and CCCc1cc(O)c2c(c1)OC(C)(C)[C@@H]1CCC(C)=C[C@@H]21 ?
RESULT: -12.7

QUERY: Okay, and CCCCCc1cc2c(c(O)c1C(=O)O)-c1cc(C)ccc1C(C)(C)O2 ?
RESULT: -23.5
